Would you kindly list cytotoxicity at 5 µM for each of these compounds?
Tested on: cancer cell line SW620, in which mutated RON (Δ155) is expressed
test-protocol: Cell-killing efficacy in RON-mutated cancer cell line SW620 (trypan blue)
Format: cell-based
test-parameters: Homo sapiens, SW-620; 5 μM, 48 hours, trypan blue, n=2; read-out: Cell death (%) Cancer cell line SW620
Respond with a number, then the unit of measure.

cytotoxicity at 5 µM in this record for COc1cc2nccc(Oc3ccc(NC(=O)c4c5c(cn(-c6ccc(F)cc6)c4=O)CCO5)cc3F)c2cc1NCCN1CCOCC1 : 70.2%

Lab note: COc1cc2c(Oc3ccc(NC(=O)c4c5c(cn(-c6ccc(F)cc6)c4=O)CCO5)cc3F)ccnc2cc1OCCN1CCS(=O)(=O)CC1 gave cytotoxicity at 5 µM of 67.6%

Sure, the documented cytotoxicity at 5 µM for COc1cc2nccc(Oc3ccc(NC(=O)c4c5c(cn(-c6ccc(F)cc6)c4=O)CCO5)cc3F)c2cc1OC is 9.2%

Lab book: cytotoxicity at 5 µM of COc1cc2c(Oc3ccc(NC(=O)c4c5c(cn(-c6ccc(F)cc6)c4=O)CCO5)cc3F)ccnc2cc1OCCCN1CCOCC1 noted as 67.8%

Where do the numbers come from? From patent US20220235064A1.
